experiment: AUC in mouse at 20 mg/kg, po after 24 hrs; format: ADME, organism-based; design: time < 24 hr, dose 20 mg/kg, route oral; conditions: plasma
metric: AUC at 24 h (µM·h)

| item.smiles | data.value |
| --- | --- |
| COC(=O)N[C@@H](C(=O)N1CCC[C@H]1c1ncc(-c2ccc(-c3ccc(-c4cnc([C@@H]5CCCN5C(=O)[C@H]5CCCO5)[nH]4)cc3)cc2)[nH]1)c1ccccc1 | 15.1 |
| CN(C)[C@@H](C(=O)N1CCC[C@H]1c1ncc(-c2ccc(-c3ccc(-c4cnc([C@@H]5CCCN5C(=O)[C@H]5CCCO5)[nH]4)cc3)cc2)[nH]1)c1ccccc1 | 1.42 |
